compound: N#C/C(=C\c1cccc2c1OCO2)C(=O)Nc1sc2c(c1C#N)CCC2 [Compound 37a]
melting point: 286 to 288 °C
//
compound: N#C/C(=C\c1ccc(C(F)(F)F)cc1)C(=O)Nc1sc2c(c1C#N)CCCC2 [Compound 25b]
melting point: 225 to 227 °C
//
compound: N#C/C(=C\c1ccc2c(c1)OCO2)C(=O)Nc1sc2c(c1C#N)CCCC2 [Compound 38b]
melting point: 204 to 206 °C
//
compound: COc1cc(/C=C(\C#N)C(=O)Nc2sc3c(c2C#N)CCCC3)ccc1OCc1ccccc1 [Compound 32b]
melting point: 220 to 222 °C
//
compound: Cc1nn(-c2ccccc2)cc1/C=C(\C#N)C(=O)Nc1sc2c(c1C#N)CCCC2 [Compound 33b]
melting point: 256 to 258 °C
//
compound: N#C/C(=C\c1c[nH]c2ccccc12)C(=O)Nc1sc2c(c1C#N)CCCC2 [Compound 39b]
melting point: 284 to 286 °C
//
compound: N#C/C(=C\c1ccc(Cl)c(Cl)c1)C(=O)Nc1sc2c(c1C#N)CCCC2 [Compound 27b]
melting point: 376 to 378 °C
//
compound: N#C/C(=C\c1ccc(N2CCCCC2)cc1)C(=O)Nc1sc2c(c1C#N)CCCC2 [Compound 29b]
melting point: 262 to 264 °C
//
compound: COc1cc(/C=C(\C#N)C(=O)Nc2sc3c(c2C#N)CCC3)ccc1OCc1ccccc1 [Compound 32a]
melting point: 233 to 235 °C
//
compound: N#C/C(=C\c1c[nH]c2ccccc12)C(=O)Nc1sc2c(c1C#N)CCC2 [Compound 39a]
melting point: 284 to 286 °C
//
compound: N#C/C(=C\c1cccc2c1OCO2)C(=O)Nc1sc2c(c1C#N)CCCC2 [Compound 37b]
melting point: 226 to 228 °C
//
compound: N#C/C(=C\c1ccc2c(c1)OCO2)C(=O)Nc1sc2c(c1C#N)CCC2 [Compound 38a]
melting point: 219 to 221 °C
//
compound: N#C/C(=C\c1ccc(Cl)c(Cl)c1)C(=O)Nc1sc2c(c1C#N)CCC2 [Compound 27a]
melting point: 329 to 331 °C
//
compound: N#C/C(=C\c1ccc(C(F)(F)F)cc1)C(=O)Nc1sc2c(c1C#N)CCC2 [Compound 25a]
melting point: 354 to 356 °C
//
compound: N#C/C(=C\c1c[nH]nc1-c1ccccc1)C(=O)Nc1sc2c(c1C#N)CCC2 [Compound 34a]
melting point: 226 to 228 °C
//
compound: N#C/C(=C\c1c[nH]nc1-c1ccccc1)C(=O)Nc1sc2c(c1C#N)CCCC2 [Compound 34b]
melting point: 263 to 265 °C
//
compound: CN1CCN(c2ccc(/C=C(\C#N)C(=O)Nc3sc4c(c3C#N)CCCC4)cc2)CC1 [Compound 31b]
melting point: 257 to 259 °C

###

# IC90 per entry
- target desc: telomerase (Homo sapiens)
- Construct: A549 cells (human epithelial cell lung carcinoma, ATCC, Manassas, VA) were lysed in; host or cells: A549 cell lysate (CHAPS extract, 5 µg total protein)
- Sequence (O14746 whole entry): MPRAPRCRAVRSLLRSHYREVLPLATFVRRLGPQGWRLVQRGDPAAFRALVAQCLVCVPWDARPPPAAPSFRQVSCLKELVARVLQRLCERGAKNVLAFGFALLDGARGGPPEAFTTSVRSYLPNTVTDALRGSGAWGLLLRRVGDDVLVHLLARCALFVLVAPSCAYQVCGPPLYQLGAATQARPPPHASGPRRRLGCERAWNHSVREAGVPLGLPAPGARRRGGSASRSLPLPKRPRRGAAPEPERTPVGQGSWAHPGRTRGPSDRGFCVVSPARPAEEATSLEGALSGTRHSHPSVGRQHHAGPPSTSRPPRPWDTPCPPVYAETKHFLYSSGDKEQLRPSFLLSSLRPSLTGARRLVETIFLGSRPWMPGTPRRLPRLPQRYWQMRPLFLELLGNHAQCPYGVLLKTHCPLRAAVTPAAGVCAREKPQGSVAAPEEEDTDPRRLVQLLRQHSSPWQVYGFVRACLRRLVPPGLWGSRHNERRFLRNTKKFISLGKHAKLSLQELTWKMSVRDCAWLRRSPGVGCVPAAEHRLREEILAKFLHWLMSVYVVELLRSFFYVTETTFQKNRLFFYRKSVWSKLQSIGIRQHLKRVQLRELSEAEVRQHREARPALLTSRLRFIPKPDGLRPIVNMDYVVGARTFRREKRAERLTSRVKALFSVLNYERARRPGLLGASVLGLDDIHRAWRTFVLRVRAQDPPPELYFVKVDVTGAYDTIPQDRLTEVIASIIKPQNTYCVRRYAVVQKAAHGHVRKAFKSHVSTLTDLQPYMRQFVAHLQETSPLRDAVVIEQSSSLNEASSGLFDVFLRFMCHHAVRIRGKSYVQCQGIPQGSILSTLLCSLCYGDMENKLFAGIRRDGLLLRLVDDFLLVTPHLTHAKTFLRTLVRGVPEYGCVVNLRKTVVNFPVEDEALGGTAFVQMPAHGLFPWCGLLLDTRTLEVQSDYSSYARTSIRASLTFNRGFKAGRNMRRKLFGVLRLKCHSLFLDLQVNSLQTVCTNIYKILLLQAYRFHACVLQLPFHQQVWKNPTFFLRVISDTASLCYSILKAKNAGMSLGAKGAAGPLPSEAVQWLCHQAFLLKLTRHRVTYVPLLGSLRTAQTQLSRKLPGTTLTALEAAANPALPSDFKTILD
- Sequence (O60832 whole entry partner): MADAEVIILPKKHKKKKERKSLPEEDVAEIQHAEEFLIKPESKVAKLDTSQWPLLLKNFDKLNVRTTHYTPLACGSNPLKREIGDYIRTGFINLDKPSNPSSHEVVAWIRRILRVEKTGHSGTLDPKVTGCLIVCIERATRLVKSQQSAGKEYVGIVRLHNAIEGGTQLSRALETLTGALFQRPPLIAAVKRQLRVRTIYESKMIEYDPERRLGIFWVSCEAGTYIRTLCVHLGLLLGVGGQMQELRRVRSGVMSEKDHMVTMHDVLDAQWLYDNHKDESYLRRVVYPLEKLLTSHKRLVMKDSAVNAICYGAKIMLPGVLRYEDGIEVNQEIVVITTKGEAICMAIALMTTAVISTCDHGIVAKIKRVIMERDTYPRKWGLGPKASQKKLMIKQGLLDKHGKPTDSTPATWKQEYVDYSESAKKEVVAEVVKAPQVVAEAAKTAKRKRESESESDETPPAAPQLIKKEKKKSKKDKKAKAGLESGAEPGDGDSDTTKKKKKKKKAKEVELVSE
- Sequence (Q9NX24 whole entry partner): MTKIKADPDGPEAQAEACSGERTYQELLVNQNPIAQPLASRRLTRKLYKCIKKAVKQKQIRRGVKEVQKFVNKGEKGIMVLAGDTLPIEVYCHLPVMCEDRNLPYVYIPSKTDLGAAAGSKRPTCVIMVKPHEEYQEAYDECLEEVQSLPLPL
- Sequence (Q9NPE3 whole entry partner): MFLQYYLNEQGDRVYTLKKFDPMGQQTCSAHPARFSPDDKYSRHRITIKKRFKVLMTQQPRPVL
- Sequence (Q9NY12 whole entry partner): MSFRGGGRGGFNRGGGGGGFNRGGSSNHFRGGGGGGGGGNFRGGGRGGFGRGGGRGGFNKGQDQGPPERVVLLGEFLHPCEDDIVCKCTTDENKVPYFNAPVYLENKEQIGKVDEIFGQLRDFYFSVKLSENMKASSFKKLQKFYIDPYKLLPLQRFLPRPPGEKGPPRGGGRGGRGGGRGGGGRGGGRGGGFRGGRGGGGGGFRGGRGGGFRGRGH
- Sequence (Q9BUR4 whole entry partner): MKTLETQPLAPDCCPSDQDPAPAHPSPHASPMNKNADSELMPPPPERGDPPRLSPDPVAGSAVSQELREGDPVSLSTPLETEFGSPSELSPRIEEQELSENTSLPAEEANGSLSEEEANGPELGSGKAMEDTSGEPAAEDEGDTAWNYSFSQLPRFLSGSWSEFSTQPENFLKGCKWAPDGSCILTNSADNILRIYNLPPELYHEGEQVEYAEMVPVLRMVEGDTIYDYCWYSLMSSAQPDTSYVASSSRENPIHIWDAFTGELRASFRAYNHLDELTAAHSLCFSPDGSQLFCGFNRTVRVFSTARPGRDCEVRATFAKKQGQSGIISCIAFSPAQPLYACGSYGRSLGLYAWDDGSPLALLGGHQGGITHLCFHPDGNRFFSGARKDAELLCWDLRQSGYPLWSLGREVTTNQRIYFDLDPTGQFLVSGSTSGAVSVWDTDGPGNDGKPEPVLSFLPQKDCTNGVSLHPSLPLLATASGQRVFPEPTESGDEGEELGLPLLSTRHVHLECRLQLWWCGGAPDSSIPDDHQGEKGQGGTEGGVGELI
- experimental protocol: TRAP / RTQ-TRAP telomerase activity assay in A549 cell-free lysates;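 also: telomerase activity measured in cell-free extracts of human A549 epithelial lung carcinoma cells, tested across a range of inhibitor concentrations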
- Type: biochemical
- assay conditions: telomerase inhibition, mean ± SEM

compound: N#C/C(=C\c1c[nH]c2ccccc12)C(=O)Nc1sc2c(c1C#N)CCC2 [Compound 39a]
IC90 / µM: 9.5
--
compound: COc1ccc(/C=C(\C#N)C(=O)Nc2sc3c(c2C#N)CCC3)cc1OC [Compound 26a]
IC90 / µM: 154
--
compound: N#C/C(=C\c1cccc2ccccc12)C(=O)Nc1sc2c(c1C#N)CCCC2 [Compound 35b]
IC90 / µM: 18.6
--
compound: N#C/C(=C\c1ccc2ccccc2c1)C(=O)Nc1sc2c(c1C#N)CCC2 [Compound 36a]
IC90 / µM: 34.9
--
compound: COc1cc(/C=C(\C#N)C(=O)Nc2sc3c(c2C#N)CCC3)ccc1OCc1ccccc1 [Compound 32a]
IC90 / µM: 177
--
compound: N#C/C(=C\c1ccc(N2CCCCC2)cc1)C(=O)Nc1sc2c(c1C#N)CCC2 [Compound 29a]
IC90 / µM: 6.3
--
compound: CN1CCN(c2ccc(/C=C(\C#N)C(=O)Nc3sc4c(c3C#N)CCC4)cc2)CC1 [Compound 31a]
IC90 / µM: 200
--
compound: N#C/C(=C\c1ccc(N2CCOCC2)cc1)C(=O)Nc1sc2c(c1C#N)CCCC2 [Compound 30b]
IC90 / µM: 119

Taken from paper PMC9025901.
